target: D-VEGF; test: SPR affinity measurements of GB1 peptidic compounds on immobilized D-VEGF; type: binding; details: Table 2; GB1-E01 double mutants; target D-VEGF
MEASURED ENDPOINT: Kd (nM)
Give bare numbers, in nM.

MOLECULE | VALUE UNIT | Kd
E01-D39F: E01 point mutant D39F; scaffold for double mutants (protein) MKIEEHHHHHHHHHHGGSTYKLILNGKTLKGETTTEAVDVYDAFDVFFVYAASNFSFFDDWTYDDATKTFTVTEGGSDK | nM | 3.48

API: the following record is the query input.
# molecule E01-D39F/A34S: E01 double mutant D39F/A34S (protein) MKIEEHHHHHHHHHHGGSTYKLILNGKTLKGETTTEAVDVYDAFDVFFVYASSNFSFFDDWTYDDATKTFTVTEGGSDK ; its Kd = 4.49
